# assay summary: Determination of compound Cmax and AUC after oral gavage (plasma LC-MS/MS)
# Assay type: in vivo, Sprague-Dawley rats
# condition label: Sprague-Dawley, rat, plasma, po, Structure (I) examples, Table 15, actual oral dose 3-15 mg/kg, plasma 0.5-4 h
assay metric: Cmax

Illustrative cases are given below, each with its answer.
> print(dat)
                                   compound      result
1  COCCN(C)C(=O)N1CCN(CCN(C)Cc2cccc(C(=O)Nc3ccc(N4CCCCC4)cc3-c3cc(C(=O)NCc4cccc(C(F)(F)F)c4)ccn3)c2)CC1 [Example 209]  < 30 ng/mL
2  O=C(O)CCOCCOCCOCCNC(=O)c1cccc(SCc2cccc(C(=O)Nc3ccc(N4CCCCC4)cc3-c3cc(C(=O)N[C@H]4CCCc5ccccc54)ccn3)c2)c1 [Example 233]  < 10 ng/mL

Shifting focus to the compound that follows.
Lookup: Supply measured Cmax of CCN(CC)c1ccc(NC(=O)c2cccc(C(=O)N(C)CCN3CCOCC3)c2)c(-c2cc(C(=O)N[C@H]3CCCc4ccccc43)ccn2)c1 [Example 131] in your reply.
Found: < 30 ng/mL

* * *

# experimental system: rat NaP2b (SLC34A2) (Rattus norvegicus)
# Construct: host or cells: HEK293
# Sequence (Q9JJ09 1-695): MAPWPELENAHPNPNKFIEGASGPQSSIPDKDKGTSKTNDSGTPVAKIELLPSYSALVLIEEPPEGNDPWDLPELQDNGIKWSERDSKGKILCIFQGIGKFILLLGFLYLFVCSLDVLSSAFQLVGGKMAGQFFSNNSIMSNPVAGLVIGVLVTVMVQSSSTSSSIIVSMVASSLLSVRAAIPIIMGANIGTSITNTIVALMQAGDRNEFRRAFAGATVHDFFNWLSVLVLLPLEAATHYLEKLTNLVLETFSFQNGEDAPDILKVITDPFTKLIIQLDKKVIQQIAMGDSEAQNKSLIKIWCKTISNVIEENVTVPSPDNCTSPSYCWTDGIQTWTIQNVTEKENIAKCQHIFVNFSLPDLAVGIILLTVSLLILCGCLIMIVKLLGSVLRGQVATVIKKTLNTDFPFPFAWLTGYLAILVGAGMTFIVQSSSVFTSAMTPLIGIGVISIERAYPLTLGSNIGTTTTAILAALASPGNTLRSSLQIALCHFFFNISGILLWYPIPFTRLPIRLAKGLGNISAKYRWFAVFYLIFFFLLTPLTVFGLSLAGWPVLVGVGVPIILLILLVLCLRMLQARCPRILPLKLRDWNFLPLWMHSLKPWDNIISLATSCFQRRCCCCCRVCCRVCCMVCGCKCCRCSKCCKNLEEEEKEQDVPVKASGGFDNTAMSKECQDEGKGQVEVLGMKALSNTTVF
# assay summary: Inhibition of NaP2b-mediated Pi (33P) uptake in transfected HEK293 cells, rat NaP2b
# Assay type: cell-based
# condition label: 33P Pi uptake, 0.1 mM phosphate, value given as pIC50 range
# IC50 annotations

> print(dat)
                    structure.smiles.string                      experimental.system         result
1  O=C(O)CCSCc1cccc(C(=O)Nc2ccc(N3CCCCC3)cc2-c2cc(Oc3cccc(C(F)(F)F)c3)ncn2)c1  rat NaP2b (SLC34A2) (Rattus norvegicus)  10 to 31.6 µM

Shifting focus to the molecule that follows.
Lookup: Supply measured IC50 of "CN(Cc1nccn1C)C(=O)c1cccc(C(=O)Nc2ccc(N3CCCCC3)cc2-c2cc(C(=O)NCc3cccc(C(F)(F)F)c3)ccn2)c1" in your reply.
Found: 1 to 7.94 µM

* * *

# experimental system: rat NaP2b (SLC34A2) (Rattus norvegicus)
# Construct: host or cells: HEK293
# assay summary: Inhibition of NaP2b-mediated Pi (33P) uptake in transfected HEK293 cells, rat NaP2b
# Assay type: cell-based
# condition label: 33P Pi uptake, 0.1 mM phosphate, value given as pIC50 range
# IC50 annotations

Illustrative cases are given below, each with its answer.
> print(dat)
                    structure.smiles.string                      experimental.system         result
1  CC(=O)N1CCN(C(=O)c2cccc(C(=O)Nc3ccc(N4CCCCC4)cc3-c3cc(C(=O)NCc4cccc(C(F)(F)F)c4)ccn3)c2)CC1  rat NaP2b (SLC34A2) (Rattus norvegicus)  10 to 31.6 µM
2  COCCNC(=O)CCSCc1cccc(C(=O)Nc2ccc(N3CCCCC3)cc2-c2cc(C(=O)NCc3cccc(C(F)(F)F)c3)ccn2)c1  rat NaP2b (SLC34A2) (Rattus norvegicus)  10 to 31.6 µM

Lookup: Supply measured IC50 of "O=C(O)CCSCc1cccc(C(=O)Nc2ccc(N3CCCCC3)cc2-c2cc(NCc3cccc(C(F)(F)F)c3)ccn2)c1" in your reply.
Found: 10 to 31.6 µM

* * *

# assay summary: Determination of compound Cmax and AUC after oral gavage (plasma LC-MS/MS)
# Type: in vivo, Sprague-Dawley rats
# condition label: Sprague-Dawley, rat, plasma, po, Structure (II) examples, Table 6, actual oral dose 7.6-11 mg/kg
# Method: Sprague-Dawley rats were orally gavaged with test article at a nominal dose of 2.5 or 10 mg/kg and blood was collected at 0.5, 1, 2 and 4 h. Blood samples were processed to plasma using K2EDTA as an anticoaglulant. […] Supernatants were analyzed by LC-MS/MS and compound concentrations were determined by interpolation from a standard curve prepared in plasma. All compounds were orally dosed at the dosage shown, and pharmacokinetic parameters determined. […]
assay metric: AUC (ng·h/mL)

> print(dat)
                    structure.smiles.string  units.text  measured.number
1  CN(CCOCCOCCOCCC(=O)O)C(=O)c1cccc(C(=O)Nc2ccc(N3CCCCC3)cc2C(=O)Nc2ccn(-c3cccc(C(F)(F)F)c3)n2)c1     ng·h/mL               11

1: CN(CCN1CCOCC1)C(=O)c1cccc(C(=O)Nc2ccc(N3CCCCC3)cc2C(=O)Nc2ccn(-c3cccc(C(F)(F)F)c3)n2)c1
2: O=C(O)CCSCc1cccc(C(=O)Nc2ccc(N3CCCCC3)cc2C(=O)Nc2ccn(-c3cccc(C(F)(F)F)c3)n2)c1
Lookup: Lab log: flag the item ( 1 or 2 ) with the smaller AUC figure. Write down the label attached to your selection.
Found: 1

* * *

# experimental system: rat NaP2b (SLC34A2) (Rattus norvegicus)
# Construct: host or cells: HEK293
# Sequence (Q9JJ09 1-695): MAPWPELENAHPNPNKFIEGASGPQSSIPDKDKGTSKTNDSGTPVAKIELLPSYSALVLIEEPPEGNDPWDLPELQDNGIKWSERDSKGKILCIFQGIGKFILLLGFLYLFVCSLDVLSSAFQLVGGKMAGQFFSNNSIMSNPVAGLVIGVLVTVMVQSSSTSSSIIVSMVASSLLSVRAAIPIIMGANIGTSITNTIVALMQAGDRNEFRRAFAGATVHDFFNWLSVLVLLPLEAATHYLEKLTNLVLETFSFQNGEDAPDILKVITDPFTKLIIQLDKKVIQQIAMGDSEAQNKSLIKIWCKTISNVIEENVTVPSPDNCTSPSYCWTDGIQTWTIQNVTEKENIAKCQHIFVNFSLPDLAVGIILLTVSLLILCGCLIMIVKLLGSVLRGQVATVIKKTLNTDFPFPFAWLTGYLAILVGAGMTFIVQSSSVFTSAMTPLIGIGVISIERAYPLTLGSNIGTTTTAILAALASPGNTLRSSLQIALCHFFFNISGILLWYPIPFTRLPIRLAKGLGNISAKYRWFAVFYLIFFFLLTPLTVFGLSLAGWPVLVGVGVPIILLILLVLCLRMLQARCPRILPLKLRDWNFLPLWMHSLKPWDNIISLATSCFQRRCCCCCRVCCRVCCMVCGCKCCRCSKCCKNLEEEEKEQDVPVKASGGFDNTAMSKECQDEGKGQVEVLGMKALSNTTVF
# assay summary: Inhibition of NaP2b-mediated Pi (33P) uptake in transfected HEK293 cells, rat NaP2b
# Format: cell-based
# condition label: 33P Pi uptake, 0.1 mM phosphate, value given as pIC50 range
pIC50: −log10 of the molar value.
# pIC50 annotations

Illustrative cases are given below, each with its answer.
structure smiles string	experimental system	pIC50
COCCOCCOCCOCCOCCOCCOCCN(C)C(=O)CCOCCOCCOCCOCCCc1cccc(C(=O)Nc2ccc(N3CCCCC3)cc2-c2cc(C(=O)NCc3cccc(C(F)(F)F)c3)ccn2)c1	rat NaP2b (SLC34A2) (Rattus norvegicus)	5.10 to 6.00
CC(=O)N1CCN(CCN(C)C(=O)c2cccc(C(=O)Nc3ccc(N4CCCCC4)cc3-c3cc(C(=O)NCc4cccc(C(F)(F)F)c4)ccn3)c2)CC1	rat NaP2b (SLC34A2) (Rattus norvegicus)	5.10 to 6.00
O=C(O)CCOCCOCCOCCOCCCc1cccc(SCc2cccc(C(=O)Nc3ccc(N4CCCCC4)cc3-c3cc(C(=O)N[C@H]4CCCc5ccccc54)ccn3)c2)c1	rat NaP2b (SLC34A2) (Rattus norvegicus)	5.10 to 6.00
CCCN(CCC)c1ccc(NC(=O)c2cccc(COCCOCCOCCOCCOCCOCCOCCOCCOC)c2)c(-c2cc(C(=O)NCc3cccc(C(F)(F)F)c3)ccn2)c1	rat NaP2b (SLC34A2) (Rattus norvegicus)	5.10 to 6.00
O=C(O)CCSCc1cccc(C(=O)Nc2ccc(N3CCCCC3)cc2-c2cc(C(=O)NCc3cccc(OC(F)(F)F)c3)ccn2)c1	rat NaP2b (SLC34A2) (Rattus norvegicus)	5.10 to 6.00
CN1CCC(NC(=O)c2cccc(SCc3cccc(C(=O)Nc4ccc(N5CCCCC5)cc4-c4cc(C(=O)NCc5cccc(C(F)(F)F)c5)ccn4)c3)c2)CC1	rat NaP2b (SLC34A2) (Rattus norvegicus)	4.50 to 5.00
O=C(NCc1cccc(C(F)(F)F)c1)c1ccnc(-c2cc(N3CCCCC3)ccc2NC(=O)c2cccc(CN3CCC(CO)CC3)c2)c1	rat NaP2b (SLC34A2) (Rattus norvegicus)	4.50 to 5.00
CC(C)(C)OC(=O)CCOCCOCCOCCOCCCc1cccc(C(=O)Nc2ccc(OC3CCC3)cc2-c2cc(C(=O)N[C@H]3CCCc4ccccc43)ccn2)c1	rat NaP2b (SLC34A2) (Rattus norvegicus)	5.10 to 6.00

Lookup: Supply measured pIC50 of "CCN(CC)c1ccc(NC(=O)c2cccc(CSCCOCCOCCOCCOCCOCCOCCOCCOC)c2)c(-c2cc(C(=O)N[C@H]3CCCc4ccccc43)ccn2)c1" in your reply.
Found: > 6.00

Lookup: Supply measured pIC50 of "Cc1cccc(CNC(=O)c2ccnc(-c3cc(N4CCCCC4)ccc3NC(=O)c3cccc(CSCCC(=O)O)c3)c2)c1" in your reply.
Found: 5.10 to 6.00

Lookup: Supply measured pIC50 of "CCN(CC)c1ccc(NC(=O)c2cccc(CCCOCCOCCOCCOCCC(=O)N3CCC[C@H](C(=O)N(C)CCOCCOCCOCCOCCOCCOCCOC)C3)c2)c(-c2cc(C(=O)NCc3cccc(C(F)(F)F)c3)ccn2)c1" in your reply.
Found: 5.10 to 6.00
